Reference source: patent US20250340563A1

ASSAYED_TARGET: MDR1 (P-gp) (Homo sapiens, UniProt P08183)
Construct: expressed in transfected cells; host or cells: Madin-Darby Canine Kidney (MDCK) cells
Sequence (P08183 whole entry, species assumed): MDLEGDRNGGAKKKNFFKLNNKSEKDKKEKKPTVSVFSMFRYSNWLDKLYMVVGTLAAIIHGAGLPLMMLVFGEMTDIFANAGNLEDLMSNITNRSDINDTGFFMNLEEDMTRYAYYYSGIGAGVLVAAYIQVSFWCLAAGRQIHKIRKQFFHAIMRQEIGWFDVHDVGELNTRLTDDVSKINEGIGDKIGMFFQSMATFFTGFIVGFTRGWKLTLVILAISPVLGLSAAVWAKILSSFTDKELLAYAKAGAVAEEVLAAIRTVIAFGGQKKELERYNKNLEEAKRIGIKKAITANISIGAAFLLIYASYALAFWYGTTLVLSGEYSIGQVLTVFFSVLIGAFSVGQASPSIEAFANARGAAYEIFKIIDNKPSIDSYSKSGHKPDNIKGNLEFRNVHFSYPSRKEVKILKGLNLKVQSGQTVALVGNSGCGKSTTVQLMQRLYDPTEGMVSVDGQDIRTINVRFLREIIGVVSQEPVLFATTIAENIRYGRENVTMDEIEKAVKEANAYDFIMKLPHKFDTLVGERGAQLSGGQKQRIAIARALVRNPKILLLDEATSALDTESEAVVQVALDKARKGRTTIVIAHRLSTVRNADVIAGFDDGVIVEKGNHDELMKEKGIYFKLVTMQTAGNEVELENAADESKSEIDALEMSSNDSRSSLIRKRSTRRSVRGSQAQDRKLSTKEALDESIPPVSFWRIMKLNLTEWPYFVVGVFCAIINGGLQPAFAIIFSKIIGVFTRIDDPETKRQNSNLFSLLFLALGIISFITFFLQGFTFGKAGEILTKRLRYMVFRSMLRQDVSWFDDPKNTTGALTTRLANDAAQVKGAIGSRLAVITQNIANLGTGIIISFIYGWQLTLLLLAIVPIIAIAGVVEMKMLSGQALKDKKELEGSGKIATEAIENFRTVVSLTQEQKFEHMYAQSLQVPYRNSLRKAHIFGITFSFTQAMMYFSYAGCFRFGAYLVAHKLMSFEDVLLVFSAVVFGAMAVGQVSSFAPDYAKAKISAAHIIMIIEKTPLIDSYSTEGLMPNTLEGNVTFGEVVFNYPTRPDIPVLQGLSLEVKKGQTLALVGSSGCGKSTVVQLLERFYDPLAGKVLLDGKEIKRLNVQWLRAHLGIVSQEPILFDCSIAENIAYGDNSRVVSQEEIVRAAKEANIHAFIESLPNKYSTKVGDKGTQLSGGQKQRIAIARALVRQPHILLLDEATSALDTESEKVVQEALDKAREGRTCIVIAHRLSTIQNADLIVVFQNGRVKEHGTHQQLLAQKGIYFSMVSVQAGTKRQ
MEASUREMENT_DESCRIPTION: MDCK-MDR1 assay (apparent permeability and efflux ratio)
Format: in vitro ADME
ASSAY_SETUP: dog, pH 7.4; MDCK-MDR1, P-gp mediated efflux ratio; read-out: MDR1 ER
Listing of recorded efflux ratio at 60 min, 1 µM by entry.
Please reply with the value in numeric form only.

- COMPOUND: "COc1ccc(-c2nnc(N[C@@H]3CCCN(C)C3)c3c2CCOC3)c(O)c1 [Example 221]"
  ASSAYED_TARGET: "MDR1 (P-gp) (Homo sapiens, UniProt P08183)"
  efflux ratio at 60 min, 1 µM: 30
- COMPOUND: "CN1C[C@H](F)C[C@@H](Nc2nnc(-c3ccc(Cl)cc3O)c3c2COCC3)C1 [Example 212]"
  ASSAYED_TARGET: "MDR1 (P-gp) (Homo sapiens, UniProt P08183)"
  efflux ratio at 60 min, 1 µM: 9
- COMPOUND: "CN1C[C@H](F)C[C@@H](Nc2nnc(-c3ccc(OC(F)(F)F)cc3O)c3c2COCC3)C1 [Example 236]"
  ASSAYED_TARGET: "MDR1 (P-gp) (Homo sapiens, UniProt P08183)"
  efflux ratio at 60 min, 1 µM: 10
- COMPOUND: "CN1CCC[C@@H](Nc2nnc(-c3ccccc3O)c3c2COCC3)C1 [Example 226]"
  ASSAYED_TARGET: "MDR1 (P-gp) (Homo sapiens, UniProt P08183)"
  efflux ratio at 60 min, 1 µM: 21
- COMPOUND: "Cc1ccc(-c2nnc(N[C@@H]3CCCC[C@H]3O)c3c2CCOC3)c(O)c1 [Example 229]"
  ASSAYED_TARGET: "MDR1 (P-gp) (Homo sapiens, UniProt P08183)"
  efflux ratio at 60 min, 1 µM: 6

In: Param item = Cc1ccc(-c2nnc(N[C@@H]3CCCN(C)C3)c3c2CCOC3)c(O)c1 [Example 218] ; retrieve measured efflux ratio at 60 min, 1 µM.
Out: 26

In: Returns the measured efflux ratio at 60 min, 1 µM for the input compound. Input: CN1C[C@H](F)C[C@@H](Nc2nnc(-c3ccccc3O)c3c2COCC3)C1 [Example 213]
Out: 14

In: Need efflux ratio at 60 min, 1 µM, item CN1C[C@H](F)C[C@@H](Nc2nnc(-c3ccc(F)cc3O)c3c2COCC3)C1 [Example 219]
Out: 13

---

ASSAYED_TARGET: NLRP3 inflammasome (Homo sapiens)
MEASUREMENT_DESCRIPTION: IL-1β assay in IFN-γ-differentiated, LPS-primed, ATP-activated THP-1 cells (ELISA)
ASSAY_SETUP: 50 ng/mL LPS priming, 2.5 mM ATP activation, 2 hours
ASSAY_ENDPOINT: log10 of IC50 (log10 of the value in nM)
Please interpret these as log10 of IC50 where IC50 is in nM.

Below are worked cases with known answers.
- COMPOUND: "CN1CCC[C@@H](Nc2nnc(-c3ccc(Cl)cc3)c3ccncc23)C1"
  ASSAYED_TARGET: "NLRP3 inflammasome (Homo sapiens)"
  log10 of IC50: 1.76
- COMPOUND: "OC12CCC(Nc3nnc(-c4ccc(Cl)cc4)c4ccccc34)(CC1)C2"
  ASSAYED_TARGET: "NLRP3 inflammasome (Homo sapiens)"
  log10 of IC50: 2.36
- COMPOUND: "Oc1ccccc1-c1nnc(N[C@@H]2CCCN(CCF)C2)c2cnccc12"
  ASSAYED_TARGET: "NLRP3 inflammasome (Homo sapiens)"
  log10 of IC50: 1.32
- COMPOUND: "CN1CCC[C@@H](Nc2nnc(-c3ccc(Cl)cc3)c3cnccc23)C1"
  ASSAYED_TARGET: "NLRP3 inflammasome (Homo sapiens)"
  log10 of IC50: 2.74
- COMPOUND: "COc1ccc(-c2nnc(N[C@@H]3CCCN(C)C3)c3c2COCC3)cc1"
  ASSAYED_TARGET: "NLRP3 inflammasome (Homo sapiens)"
  log10 of IC50: 2.66
- COMPOUND: "CN1CCC[C@@H](Nc2nnc(-c3ccccc3C(F)F)c3ccncc23)C1"
  ASSAYED_TARGET: "NLRP3 inflammasome (Homo sapiens)"
  log10 of IC50: 2.49
- COMPOUND: "CN1C[C@H](F)C[C@@H](Nc2nnc(-c3ccccc3O)c3c2COCC3)C1"
  ASSAYED_TARGET: "NLRP3 inflammasome (Homo sapiens)"
  log10 of IC50: 1.45
- COMPOUND: "CCN1C[C@H](F)C[C@@H](Nc2nnc(-c3ccc(OC)cc3)c3ccncc23)C1"
  ASSAYED_TARGET: "NLRP3 inflammasome (Homo sapiens)"
  log10 of IC50: 2.05
- COMPOUND: "CC(C)(C)c1ccc(-c2nnc(Nc3cccc(O)c3)c3ccccc23)cn1"
  ASSAYED_TARGET: "NLRP3 inflammasome (Homo sapiens)"
  log10 of IC50: 3.22
- COMPOUND: "COc1ccc(-c2nnc(N[C@@H]3C[C@@H](F)CN(C)C3)c3c2COCC3)c(F)c1"
  ASSAYED_TARGET: "NLRP3 inflammasome (Homo sapiens)"
  log10 of IC50: 3.02

In: Look at this compound and give its reported log10 of IC50. "C[C@]1(O)CC[C@H](Nc2nnc(-c3ccc(Cl)cc3)c3ccccc23)CC1"
Out: 3.60

---

ASSAYED_TARGET: NLRP3 inflammasome (Homo sapiens, UniProt Q96P20)
Sequence (Q96P20 whole entry): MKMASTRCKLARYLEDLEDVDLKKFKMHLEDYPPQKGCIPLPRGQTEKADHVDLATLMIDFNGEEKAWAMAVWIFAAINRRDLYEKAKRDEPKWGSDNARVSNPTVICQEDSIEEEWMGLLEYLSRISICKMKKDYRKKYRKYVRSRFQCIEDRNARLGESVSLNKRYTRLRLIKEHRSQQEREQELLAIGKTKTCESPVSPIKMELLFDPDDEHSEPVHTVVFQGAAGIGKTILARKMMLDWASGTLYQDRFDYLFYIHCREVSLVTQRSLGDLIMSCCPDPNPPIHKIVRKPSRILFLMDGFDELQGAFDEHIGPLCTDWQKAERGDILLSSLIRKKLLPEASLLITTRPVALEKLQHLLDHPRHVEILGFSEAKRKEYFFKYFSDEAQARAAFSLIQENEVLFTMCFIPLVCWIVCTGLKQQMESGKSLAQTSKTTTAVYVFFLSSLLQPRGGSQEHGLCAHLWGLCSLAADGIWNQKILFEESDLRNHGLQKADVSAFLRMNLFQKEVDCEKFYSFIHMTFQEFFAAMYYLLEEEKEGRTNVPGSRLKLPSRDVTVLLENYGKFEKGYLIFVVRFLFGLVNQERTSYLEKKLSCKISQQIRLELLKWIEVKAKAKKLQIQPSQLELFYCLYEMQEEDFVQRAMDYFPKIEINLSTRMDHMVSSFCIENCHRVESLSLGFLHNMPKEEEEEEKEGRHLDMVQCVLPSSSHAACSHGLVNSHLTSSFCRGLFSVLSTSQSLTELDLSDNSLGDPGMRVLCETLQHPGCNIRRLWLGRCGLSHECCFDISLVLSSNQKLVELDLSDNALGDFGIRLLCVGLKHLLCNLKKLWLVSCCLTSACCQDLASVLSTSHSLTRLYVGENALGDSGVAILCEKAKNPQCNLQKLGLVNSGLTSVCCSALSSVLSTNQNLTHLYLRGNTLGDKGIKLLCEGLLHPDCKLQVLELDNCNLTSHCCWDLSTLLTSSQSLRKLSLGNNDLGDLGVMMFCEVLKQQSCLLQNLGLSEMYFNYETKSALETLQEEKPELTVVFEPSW
MEASUREMENT_DESCRIPTION: IL-1β assay in IFN-γ-differentiated, LPS-primed, ATP-activated THP-1 cells (ELISA)
ASSAY_SETUP: 50 ng/mL LPS priming, 2.5 mM ATP activation, 2 hours
pIC50: −log10 of the molar value.
Everything with pIC50 lower than 6 is criterion not met; everything else, including exactly 6, is criterion met.

- COMPOUND: "CN1CCCC(Nc2nnc(-c3ccc(Cl)cc3)c3ccncc23)C1 (centres unmarked) [Example 63]"
  ASSAYED_TARGET: "NLRP3 inflammasome (Homo sapiens, UniProt Q96P20)"
  GROUP_LABEL: "criterion met"

Query compound follows.
In: Decide: pIC50 of CN1CCC[C@@H](Nc2nnc(-c3ccccc3O)c3c2CCOC3)C1 [Example 227] >= 6?
Out: criterion met

---

ASSAYED_TARGET: NLRP3 inflammasome (Homo sapiens, UniProt Q96P20)
MEASUREMENT_DESCRIPTION: IL-1β assay in IFN-γ-differentiated, LPS-primed, ATP-activated THP-1 cells (ELISA)
ASSAY_SETUP: 50 ng/mL LPS priming, 2.5 mM ATP activation, 2 hours
ASSAY_ENDPOINT: pIC50
In textbook form, pIC50 equals minus log to base ten of the concentration in mol/L.

Solved cases (3 shown):
- MOLECULE: "CN1CCCC(Nc2nnc(-c3ccc(Cl)cc3F)c3cnccc23)C1 (stereo not drawn)"
  ASSAYED_TARGET: "NLRP3 inflammasome (Homo sapiens, UniProt Q96P20)"
  pIC50: 6.08
- MOLECULE: "CC(C)c1ccc(-c2nnc(Nc3cccc(O)c3)c3ccccc23)cc1"
  ASSAYED_TARGET: "NLRP3 inflammasome (Homo sapiens, UniProt Q96P20)"
  pIC50: 6.01
- MOLECULE: "COc1ccc(-c2nnc(Nc3cccc(O)c3)c3c2CCCC3)cc1"
  ASSAYED_TARGET: "NLRP3 inflammasome (Homo sapiens, UniProt Q96P20)"
  pIC50: 5.56

In: Given the entry CCN1CC(C)C(Nc2nnc(-c3ccc(Cl)cc3)c3ccccc23)C1 (stereo not drawn) , report its measured pIC50.
Out: 5.44

In: Can you look up the measured pIC50 of Cc1cc(Cl)ccc1-c1nnc(NC2CCCN(C)C2)c2ccccc12 (stereo not drawn) for me?
Out: 6.95

In: What value of measured pIC50 is listed for "COc1ccc(-c2nnc(N[C@@H]3C[C@@H](F)CN(C)C3)c3c2CCOC3)c(O)c1" ?
Out: 7.96

In: Bench note: what pIC50 did "COc1ccc(-c2nnc(N[C@@H]3C[C@@H](F)CN(C)C3)c3ccccc23)cc1" show?
Out: 7.28

In: Dear colleague, I am looking for the recorded pIC50 of the following molecule: Cc1nccc2c(-c3ccc(Cl)cc3)nnc(NC3CCCN(C)C3)c12 (stereo not drawn)
Out: 6.75

In: Entry "CN1CCC[C@@H](Nc2nnc(-c3ccccc3O)c3ccncc23)C1" : reported pIC50 = ?
Out: 8.10

---

ASSAYED_TARGET: NLRP3 inflammasome (Homo sapiens, UniProt Q96P20)
MEASUREMENT_DESCRIPTION: IL-1β assay in IFN-γ-differentiated, LPS-primed, ATP-activated THP-1 cells (ELISA)
ASSAY_SETUP: 50 ng/mL LPS priming, 2.5 mM ATP activation, 2 hours
pIC50: −log10 of the molar value.
Each record gets a class by pIC50: L: < 6; M: ≥ 6 and < 7; H: ≥ 7

- SMI: "Oc1ccccc1-c1nnc(N[C@@H]2CCCN(CCF)C2)c2ccccc12"
  GROUP_LABEL: "H"
- SMI: "COc1ccc(-c2nnc(N[C@@H]3C[C@@H](F)CN(C)C3)c3ccncc23)cc1"
  GROUP_LABEL: "M"
- SMI: "CC(C)[C@@H]1CN(C)C[C@H]1Nc1nnc(-c2ccc(Cl)cc2)c2ccccc12"
  GROUP_LABEL: "L"
- SMI: "COc1ccc(-c2nnc(N[C@@H]3CCCN(C)C3)c3cnccc23)c(F)c1"
  GROUP_LABEL: "H"
- SMI: "CN1CCC[C@@H](Nc2nnc(-c3ccc(OC(F)F)cc3F)c3ccncc23)C1"
  GROUP_LABEL: "H"

Continue with the next molecule.
In: Category of "Cc1ccc(-c2nnc(N[C@@H]3CCCC[C@H]3O)c3c2CCOC3)c(O)c1" , please.
Out: H
